MEASUREMENT_NAME: melting point

Worked examples, 7 molecules total:
{"MOLECULE": "CCn1c(Oc2cccc(N3CCN(C)CC3)c2)nnc1[C@@H](C)NS(=O)(=O)c1ccc2c(S(C)(=O)=O)cccc2c1 [Compound 693]", "melting point": "158 to 161 °C"}
{"MOLECULE": "CCn1c(Oc2cccc(N3C[C@@H](C)O[C@@H](C)C3)c2)nnc1[C@@H](C)NS(=O)(=O)c1ccc(Cl)c(Cl)c1 [Compound 76]", "melting point": "151.5 to 153.5 °C"}
{"MOLECULE": "CCn1c(Oc2ccc(OC)cc2)nnc1[C@@H](C)NS(=O)(=O)c1ccc(Cl)c(Cl)c1 [Compound 11]", "melting point": "155 to 160 °C"}
{"MOLECULE": "CCn1c(Oc2ccc(OCCN(C)C)cc2)nnc1[C@@H](C)NS(=O)(=O)c1ccc(Cl)c(Cl)c1 [Compound 35]", "melting point": "156 to 159 °C"}
{"MOLECULE": "CCn1c(Oc2cccc(N3CCNCC3)c2)nnc1[C@@H](C)NS(=O)(=O)c1ccc(Cl)c(Cl)c1 [Compound 683]", "melting point": "175 to 178 °C"}
{"MOLECULE": "CCn1c(Oc2ccc(C3CCCCC3)cc2)nnc1[C@@H](C)NS(=O)(=O)c1ccc(Cl)c(Cl)c1 [Compound 15]", "melting point": "200 to 205 °C"}
{"MOLECULE": "CCn1c(Oc2ccc(F)cc2)nnc1C(C)(C)NS(=O)(=O)c1ccc(Cl)c(Cl)c1 [Compound 682]", "melting point": "228 to 228.5 °C"}

Input: Consider the molecule CCn1c(Oc2ccc3cc[nH]c3c2)nnc1[C@@H](C)NS(=O)(=O)c1ccc(C)c(Cl)c1 [Compound 132] and give its measured melting point.
Output: 95 to 104 °C
